biological target: dCTP pyrophosphatase 1 (Homo sapiens); assay: Inhibition of recombinant human N-terminal His-tagged dCTPase 1 expressed in Escherichia coli BL21(DE3)pLysS using dCTP as substrate after 1 hr by malachite green reagent based assay
Sequence (Q9H773 whole entry): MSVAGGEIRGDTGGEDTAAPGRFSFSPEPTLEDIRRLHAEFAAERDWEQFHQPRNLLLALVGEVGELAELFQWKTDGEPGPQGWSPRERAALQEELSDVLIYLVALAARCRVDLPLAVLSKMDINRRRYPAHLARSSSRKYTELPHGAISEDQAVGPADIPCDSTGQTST
quantity kind: IC50 (nM)

Worked cases, IC50 given:
In [3]: df
Out[3]:
                              query_smiles  number
0  CN(C)c1ccc(-c2nn3c(-c4ccccn4)nnc3s2)cc1     291
1        Fc1ccccc1-c1nn2c(-c3ccccn3)nnc2s1     670
2      CCc1noc(C)c1-c1nn2c(-c3cccs3)nnc2s1     346
3        Fc1ccccc1-c1nnc2sc(-c3ccccc3)nn12     410
4        c1ccc(-c2nn3c(-c4ccco4)nnc3s2)cc1     592
5      Cc1cccc(-c2nn3c(-c4ccccn4)nnc3s2)c1     449
6  c1coc(-c2nnc3sc(-c4ccc5ccccc5n4)nn23)c1     177
7   C(=C\c1cccnc1)/Cc1nn2c(-c3ccco3)nnc2s1     453

I. CCOc1ccc(-c2nn3c(-c4ccccn4)nnc3s2)cc1OCC
II. C(=C\c1cccnc1)/Cc1nn2c(-c3ccccc3)nnc2s1
III. CN(C)c1cccc(-c2nn3c(-c4ccccn4)nnc3s2)c1
IV. c1coc(-c2nnc3sc(-c4csc5c4CCCC5)nn23)c1
V. CCCCc1nnc2sc(-c3cc(C)nc4ccccc34)nn12
Task: Put the entries in order of IC50, starting with the largest number. Please respond by ranking the labels in the order requested.
Result: V, I, II, III, IV
(V: 5610 nM, I: 1170 nM, II: 558 nM, III: 277 nM, IV: 144 nM)

P. Fc1ccc(-c2nn3c(-c4ccccn4)nnc3s2)cc1
Q. c1ccc(-c2nnc3sc(-c4cccc5ccccc45)nn23)nc1
R. c1coc(-c2nnc3sc(-c4cccs4)nn23)c1
Task: Order the records, beginning with the lowest IC50 and ending with the highest. Please respond by ranking the labels in the order requested.
Result: Q, P, R
(Q: 204 nM, P: 332 nM, R: 704 nM)

I. Clc1ccccc1-c1nn2c(-c3ccccn3)nnc2s1
II. Clc1ccc(/C=C/Cc2nn3c(-c4ccccn4)nnc3s2)cc1
Task: # returns the entry with the larger IC50; inputs I and II Could you answer with the label of the item you picked?
Result: I

a. Cc1cc(-c2nn3c(-c4ccccn4)nnc3s2)c2ccccc2n1
b. Cc1ccc(-c2nn3c(-c4ccccn4)nnc3s2)cc1
Task: # returns the entry with the larger IC50; inputs a and b Could you answer with the label of the item you picked?
Result: b
(b: 469 nM, a: 314 nM)

a. Fc1cccc(-c2nn3c(-c4ccccn4)nnc3s2)c1
b. c1ccc(-c2nnc3sc(-c4cccnc4)nn23)nc1
Task: # returns the entry with the larger IC50; inputs a and b Could you answer with the label of the item you picked?
Result: a
(a: 357 nM, b: 233 nM)

----------
experiment: Hepatic extraction ratio in mouse liver microsomes up to 100 uM preincubated for 10 mins followed by NADPH addition by UPLC-MS analysis; type: ADME, microsome; details: read-out: ERH
quantity kind: hepatic extraction ratio

>>> df
                               query_smiles  number
0         c1csc(-c2nnc3sc(-c4cnccn4)nn23)c1    0.99
1  c1ccc(-c2nnc3sc(-c4ccc5c(c4)OCO5)nn23)nc1    0.99
2     COc1ccc(-c2nn3c(-c4ccco4)nnc3s2)cc1OC    0.99
3    COc1ccc(-c2nn3c(-c4ccccn4)nnc3s2)cc1OC    0.95
4      Cc1cc(-c2nn3c(-c4cccs4)nnc3s2)n[nH]1    0.97
